# target-under-test: LRO4
# test-protocol: competitive phage ELISA, coated LRO4; competitor MDA-LDL 50 µg/mL
Bridges are numbered along the chain shown (N, C = ends). Where no end group is shown, it is not given here.
value-kind: B/Bo (inhibition of binding to LR04) (B/Bo)

| binder | observed-result |
| --- | --- |
| HSWSNYWGHQHAGGGS (peptide, not shown: large carriers) [phage clone A32] | 0.18 |
| ACNNSHMPLCGGGS (peptide, not shown: large carriers, disulfide 2-10; not fully specified) [phage clones Ca9, Cb3, Ca8, Ca10] | 0.04 |
| DYTNSVSMRYLSGGGS (peptide, not shown: large carriers) [phage clone M36] | 0.07 |
| ACNNWKMPLCGGGS (peptide, not shown: large carriers, disulfide 2-10; also: C-terminus fused to phage pIII) [phage clone Cb4] | 0.02 |
| HSLTNTQMTQLSGGGS (peptide, not shown: large carriers) [phage clone M31] | 0.4 |
| HRISNYAMELHSGGGS (peptide, not shown: large carriers) [phage clone G4] | 0.1 |
| HRMTNNAMDVFMGGGS (peptide, not shown: large carriers) [phage clones M6, G10] | 0.2 |
